Data provenance: patent US20250250328A1

- target or system: HIV-1 envelope 3468_V1_C12 (HIV-1)
- test name: cell-based or functional assay
// IC50, PSV assay lookup, one value per entry

The examples below pair each entry with its known result.
binder="bNAb14 (antibody, V domains shown) VH: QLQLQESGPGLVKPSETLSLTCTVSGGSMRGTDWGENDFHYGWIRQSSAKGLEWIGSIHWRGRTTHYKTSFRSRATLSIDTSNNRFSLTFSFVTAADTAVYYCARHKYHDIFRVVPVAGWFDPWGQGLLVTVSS VL: EIVMTQSPPTLSVSPGETATLSCRASQNVKNNLAWYQLKPGQAPRLLIFDASSRAGGIPDRFSGSGYGTDFTLTVNSVQSEDFGDYFCQQYEEWPRTFGQGTKVDIKR" endpoint_name="IC50, PSV assay" result="> 500 nM"
binder="bNAb15 (antibody, V domains shown) VH: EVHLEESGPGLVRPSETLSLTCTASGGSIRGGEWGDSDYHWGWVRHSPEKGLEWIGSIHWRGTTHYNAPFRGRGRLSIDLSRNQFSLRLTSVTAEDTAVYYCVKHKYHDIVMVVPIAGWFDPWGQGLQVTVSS VL: EIMMTQSPAILSVSPGDRATLSCRASQSVKNNLAWYQKRPGQAPRLLIFDTSSRASGIPARFSGGGSGTEFTLTVNSMQSEDFATYYCQQYEEWPRTFGQGTKVEIKR" endpoint_name="IC50, PSV assay" result="> 500 nM"
binder="bNAb16 (antibody, V domains shown) VH: EVQLVESGGGLVKPGGSLRLTCVASGFTFSDVWLNWVRQAPGKGLEWVGRIKSRTDGGTTDYAASVKGRFTISRDDSKNTLYLQMNSLKTEDTAVYSCTTDGFIMIRGVSEDYYYYYMDVWGKGTTVTVSS VL: QSVLTQPPSVSAAPGQKVTISCSGSSSNIGNNYVLWYQQFPGTAPKLLIYGNNKRPSGIPDRFSGSKSGTSATLGITGLQTGDEADYFCATWDSGLSADWVFGGGTKLTVLG" endpoint_name="IC50, PSV assay" result="> 500 nM"
binder="bNAb18 (antibody, V domains shown) VH: QVQLVQSGAEVRKPGSSVTISCKPVGGTFTNFAIHWVRQAPGQGLEWVGGRVPVVGIYKYGKKFHDRLRLYEDDPMKTVFLELRSLTSDDTGVYYCTRWRGCGMCPYDTSSYYNDASDVWGPGTKVIVSA VL: EIVLTQSPVTLSLSSGETGTLSCRASQNISSSWIAWYQQRRGQVPRLLISAASARAAGIPDRFTGRGSGTDFTLTITRLEPEDFGVYSCQYYGGSFFTFGPGTQVDVKR" endpoint_name="IC50, PSV assay" result="> 500 nM"
binder="bNAb23 (antibody, V domains shown) VH: QVQLLESGPGLVRPSETLTLTCSVFNSRVSGYYYSWIRQPPGRGLEWIASTHFSLRPSRNPSLLSRVTTSIDTERYQVFLNMRSVTAADTAVYFCARGDASGWRADYFPHWGQGTLVVVSS VL: QSVLTQPPSASGSPGQSVTISCTGTSSDIGASDYVSWYQQYPGEAPKVIIYDVTKRPSGVPDRFSGSKSGTTASLTVSGLQAEDEADYYCSSDAGRHTLLFGGGTKVTVLG" endpoint_name="IC50, PSV assay" result="> 500 nM"

Turning now to a further binder:
Need IC50, PSV assay of bNAb19 (antibody, V domains shown) VH: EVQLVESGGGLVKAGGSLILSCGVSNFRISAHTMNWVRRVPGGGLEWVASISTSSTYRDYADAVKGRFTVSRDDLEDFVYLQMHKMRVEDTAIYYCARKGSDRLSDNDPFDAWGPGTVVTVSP VL: DVVMTQSPSTLSASVGDTITITCRASQSIETWLAWYQQKPGKAPKLLIYKASTLKTGVPSRFSGSGSGTEFTLTISGLQFDDFATYHCQHYAGYSATFGQGTRVEIKR , thanks.
> 300 nM
